Tested on: LOX IMVI
method.notes: NCI tumour cell line growth inhibition, 48 h
Calls of active or inactive are those of the source. Rule as the data show it: active = GI50 up to about 1.1 µM and inactive = higher.
Mark one answer only. Choices: active, inactive

Reference set, count: 3
compound	category
COC1OC(CBr)C(OC(=O)c2ccccc2)C(O)C1Br (stereo unspecified)	inactive
CSc1ncnc2c1cnn2CCCCO	inactive
CCC(Nc1ncnc2nc[nH]c12)C(=O)O (stereo unspecified)	inactive

I'd appreciate the recorded outcome for `O=[N+]([O-])c1cccc2nc3ccccc3c(NCCNCCO)c12` from this test.
active

I'd appreciate the recorded outcome for NC(CCCC(N)P(=O)(O)O)P(=O)(O)O (stereo unspecified) from this test.
inactive

I'd appreciate the recorded outcome for `Cc1ccc2nc(N)[nH]c(=O)c2c1Sc1ccncc1` from this test.
inactive

I'd appreciate the recorded outcome for `C=C1CC[C@@H]2[C@](C)(COC(=O)CCC(=O)OC)CCC[C@@]2(C)[C@@H]1CCC1=CC(=O)OC1` from this test.
inactive

I'd appreciate the recorded outcome for COc1cccc2c1OC1Sc3ccccc3-c3nn(-c4ccccc4)c-2c31 (stereo unspecified) from this test.
inactive

I'd appreciate the recorded outcome for `Cc1ccc(/C=C/c2n[nH]c(N/N=C/c3ccc4c(c3)OCO4)nc2=O)cc1` from this test.
inactive

I'd appreciate the recorded outcome for `NCCSSCc1ccccc1CSSCCN` from this test.
inactive

I'd appreciate the recorded outcome for `O=C(NC(=O)c1ccccc1[N+](=O)[O-])Nc1ccc(Oc2ncc(Br)cn2)c(Cl)c1` from this test.
active

I'd appreciate the recorded outcome for COc1ccccc1Cc1nc(-c2ccccc2)nn(C2OC(COC(C)=O)C(OC(C)=O)C(OC(C)=O)C2OC(C)=O)c1=S (stereo unspecified) from this test.
inactive

I'd appreciate the recorded outcome for COc1ccc2c3c1OC1C(F)C=CC4(O)C(C2)NCCC314 (stereo unspecified) from this test.
inactive

I'd appreciate the recorded outcome for `CC(=O)O[C@@H]1[C@H]2[C@@H](OC(=O)c3ccccc3)[C@@H](C)C[C@]2(O)[C@H](OC(C)=O)[C@@]2(C)[C@@H]3C[C@@](C)(OC(C)=O)C[C@@H](OC(C)=O)[C@@]3(OC(C)=O)C[C@@]12C` from this test.
inactive

I'd appreciate the recorded outcome for C=CCN(c1cc(OC)c2c(c1[N+](=O)[O-])C(C)(SC)C(=O)N2)S(C)(=O)=O (stereo unspecified) from this test.
inactive

I'd appreciate the recorded outcome for O=C(O)CCC(C(=O)O)N1C(=O)C2C3CCC(C3)C2C1=O (stereo unspecified) from this test.
inactive

I'd appreciate the recorded outcome for `C/C(=N\NC(=O)c1ccccc1O)c1c(O)cc(C)oc1=O` from this test.
inactive

---

System: UO-31
method.notes: NCI tumour cell line growth inhibition, 48 h
Active and inactive are the calls of the source. No stated cut-off is given here; in the data, active = GI50 up to about 1.1 µM and inactive = higher.
parameter: GI50

These recorded examples may help you get a feel for the data.
> print(dat)
                                   compound  study.target      recorded.result
1  CC(=O)Oc1ccc2c(-c3ccccc3)c(Oc3ccc(Cl)cc3)c(=O)oc2c1         UO-31   14.8 µM (inactive)
2  CC(=O)c1c(O)ccc2c1CC(CC=O)O2 (stereo not given)         UO-31   63.2 µM (inactive)
3  Cc1nc(C(N)=S)sc1C(=O)CC(=O)C(=O)Nc1ccccc1[N+](=O)[O-]         UO-31  > 100 µM (inactive)

What value of GI50 has been reported for the following compound? `COC(=O)[C@H](Cc1ccccc1)NC(=O)c1ccc(CNC(=O)/C=C/c2ccc(OCc3ccccc3)cc2)cc1`
14 µM (inactive)

What value of GI50 has been reported for the following compound? `COc1ccc(/C=N/Nc2nnc3c(n2)c2ccccc2c2nn(-c4ccccc4Cl)nc23)cc1`
> 100 µM (inactive)

---

System: SNB-19
method.notes: NCI tumour cell line growth inhibition, 48 h
Active and inactive are the calls of the source. Cut-off read from the data, not from the text of the source: active = GI50 up to about 1.1 µM and inactive = higher.
Mark one answer only. Choices: active, inactive

Reference set, count: 4
molecule	study.target	category
CC1(C)CC(=O)C(C(CC(c2ccccc2)c2cc3c(cc2O)OCO3)C2=C(O)CC(C)(C)CC2=O)=C(O)C1 (configuration not stated)	SNB-19	inactive
Cc1csc(NCc2ccc(Cl)cc2)n1	SNB-19	inactive
Cc1ccc([N+](=O)[O-])cc1S(=O)(=O)Nc1ccc(C2=NN(S(=O)(=O)c3cc([N+](=O)[O-])ccc3C)C(c3cccs3)C2)cc1 (configuration not stated)	SNB-19	inactive
CCOC(=O)C1(c2ccccc2)CCC(=O)CC1	SNB-19	inactive

I'd appreciate the recorded outcome for COc1nc(=O)n(COC(CO)CN2C(=O)c3ccccc3C2=O)cc1Cc1cccc(OCc2ccccc2)c1 (configuration not stated) from this test.
inactive

I'd appreciate the recorded outcome for `CC[N+](CC)(CC)Cc1cc2ccccc2n1C(=O)OC` from this test.
inactive

I'd appreciate the recorded outcome for `CSc1c(C#N)c(N)n(-c2ccc(Cl)cc2)c(=O)c1C#N` from this test.
inactive

I'd appreciate the recorded outcome for `CCc1cccc(C)c1N1C(=O)C(=O)C(c2nc3ccccc3o2)C(=O)C1=O` from this test.
inactive

I'd appreciate the recorded outcome for `CCCn1c(=O)c(N2CCN(c3ccccc3)CC2)nc2sc3ccccc3c21` from this test.
inactive

I'd appreciate the recorded outcome for CC(C)(C)OC(=O)NC12C3C4C1C1C2C3C41NC(=O)OC(C)(C)C (configuration not stated) from this test.
inactive

I'd appreciate the recorded outcome for C#C[C@]1(O)CC[C@H]2[C@@H]3CCC4=C/C(=N/NC(=O)c5cccc6c(=O)c7ccccc7[nH]c56)CCC4[C@H]3CC[C@@]21C (some centres not stated) from this test.
inactive

---

Known GI50 of a selection of compounds
System: MDA-MB-231
method.notes: NCI tumour cell line growth inhibition, 48 h
Calls of active or inactive are those of the source. Rule as the data show it: active = GI50 up to about 1.1 µM and inactive = higher.

These recorded examples may help you get a feel for the data.
> print(dat)
                                   compound  study.target  parameter      recorded.result
1  O=C1C2=Cc3ccccc3OC2(O)Oc2cc(O)cc(O)c21 (configuration not stated)    MDA-MB-231       GI50  > 100 µM (inactive)
2                CCNC(=O)c1c(O)nc2ccccc2c1O    MDA-MB-231       GI50   67.5 µM (inactive)
3                      N#CSc1[nH]cnc1C(N)=O    MDA-MB-231       GI50   55.7 µM (inactive)
4            Cc1cccc(NC(=S)Nc2cccc(Cl)c2)n1    MDA-MB-231       GI50  > 100 µM (inactive)

What value of GI50 has been reported for the following compound? NC1CC(=O)c2cc(Br)sc21 (configuration not stated)
> 100 µM (inactive)

What value of GI50 has been reported for the following compound? O=C(O)C1Cc2ccccc2OC1=O (configuration not stated)
> 100 µM (inactive)

What value of GI50 has been reported for the following compound? `O=c1c(Cl)c(Cl)cnn1-c1ccccc1`
1.77 µM (inactive)

What value of GI50 has been reported for the following compound? `Cc1cc([C@H](C#N)c2nc3ccccc3s2)nc(Cl)n1`
3 µM (inactive)

---

Test system: EKVX
method.notes: NCI tumour cell line growth inhibition, 48 h
Calls of active or inactive are those of the source. No stated cut-off is given here; in the data, active = GI50 up to about 1.1 µM and inactive = higher.
Mark one answer only. Choices: y for active, n for inactive

Reference set, count: 3
> print(dat)
                                   compound  category
1  Nc1ccc(-c2nnc(-c3c(Cl)c(Cl)c(Cl)c(Cl)c3-c3nc4cc(C(=O)c5ccccc5)ccc4[nH]3)o2)cc1         n
2  Cc1ccc([C@@H]2[C@@H](C(=O)c3ccccn3)[C@H](c3ccc(C)cc3)C[C@](O)(c3ccccn3)[C@H]2C(=O)c2ccccn2)cc1         y
3  COc1ccc(C2=NN(c3ccccc3)C[N+](c3ccc(OC)cc3)=N2)cc1         n

I'd appreciate the recorded outcome for CC12CP(=O)(c3ccccc3)CC1c1ccccc1C2c1ccccc1 (centres undefined) from this test.
n

---

Test system: A498
method.notes: NCI tumour cell line growth inhibition, 48 h
Activity calls are given as the source filed them. Rule as the data show it: active = GI50 up to about 1.1 µM and inactive = higher.
parameter: GI50

> print(dat)
                                   molecule  parameter      recorded.result
1                 C#CCOC(=O)c1ccccc1OC(C)=O       GI50  > 100 µM (inactive)
2  C[N+]1(C)C/C(=C\C=C\c2ccccc2)C(=O)/C(=C/C=C/c2ccccc2)C1       GI50   60.1 µM (inactive)
3  COc1ccc(C(=O)/C=C/c2cc(O)c(O)cc2F)c(OC)c1       GI50   12.1 µM (inactive)
4  C1=N\CCNCC/N=C\c2ccc(cc2)OCc2cccc(n2)COc2ccc/1cc2       GI50  > 100 µM (inactive)
5  CN(C)CCNC(=O)c1cccc2[nH]c(-c3ccccc3)nc12       GI50   13.1 µM (inactive)
6                      NCCSSCc1ccccc1CSSCCN       GI50  > 100 µM (inactive)
7                 O=C(O)CCSC(=O)Nc1ccccc1Cl       GI50     60 µM (inactive)
8  C=CCCC(=O)C(=[N+]=[N-])C(=O)CCC(=O)c1ccccc1       GI50   > 10 µM (inactive)

// moving on: another record for GI50
Recorded GI50 for `N#Cc1cccc(N2C(=O)c3ccc(C(=O)c4ccc5c(c4)C(=O)N(c4cccc(C#N)c4)C5=O)cc3C2=O)c1` with A498, please?
> 100 µM (inactive)
